Numbers sourced from paper PMC10478824.

# ASSAY_TARGET: FAP (FAP-positive HT-1080-FAP cells) (Homo sapiens)
# Construct: expressed in transfected cells; host or cells: HT-1080 human fibrosarcoma cells, stably transfected (HT-1080-FAP)
# Sequence (Q12884 whole entry): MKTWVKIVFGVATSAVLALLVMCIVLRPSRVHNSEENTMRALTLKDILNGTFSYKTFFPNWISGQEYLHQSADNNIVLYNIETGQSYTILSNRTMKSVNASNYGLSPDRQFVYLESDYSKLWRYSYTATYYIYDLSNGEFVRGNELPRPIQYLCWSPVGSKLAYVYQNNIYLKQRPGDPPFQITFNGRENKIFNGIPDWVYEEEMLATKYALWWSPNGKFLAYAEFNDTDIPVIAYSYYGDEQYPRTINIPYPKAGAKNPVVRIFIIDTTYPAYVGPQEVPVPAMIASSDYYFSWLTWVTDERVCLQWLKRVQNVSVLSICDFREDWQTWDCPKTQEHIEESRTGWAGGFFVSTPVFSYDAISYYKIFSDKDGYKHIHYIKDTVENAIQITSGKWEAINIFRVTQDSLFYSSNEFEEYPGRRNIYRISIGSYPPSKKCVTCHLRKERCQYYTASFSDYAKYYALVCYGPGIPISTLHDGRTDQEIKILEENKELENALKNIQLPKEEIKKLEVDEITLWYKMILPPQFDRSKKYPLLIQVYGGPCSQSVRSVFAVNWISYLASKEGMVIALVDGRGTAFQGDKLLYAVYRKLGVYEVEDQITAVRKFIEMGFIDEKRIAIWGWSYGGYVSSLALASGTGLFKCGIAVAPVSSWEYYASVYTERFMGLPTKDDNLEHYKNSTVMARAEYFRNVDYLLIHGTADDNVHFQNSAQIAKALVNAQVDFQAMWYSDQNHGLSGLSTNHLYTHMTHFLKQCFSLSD
# PROTOCOL: Competitive cell-binding assay against ^68Ga-FAPI-46
# CONDITION_NOTES: competition with ^68Ga-FAPI-46, 60 min, read-out: 50% inhibitory concentration
pIC50: −log10 of the molar value.

MOLECULE	pIC50
CN(CCCN1CCN(C(=O)CN2CCN(CC(=O)O)CCN(CC(=O)O)CCN(CC(=O)O)CC2)CC1)c1ccc2nccc(C(=O)NCC(=O)N3CC(F)(F)C[C@H]3C#N)c2c1 [FAPI-46, reference compound]	7.94
